# TARGET OF ASSAY: Integrin alpha-4/beta-1 (Homo sapiens, UniProt P05556+P13612)
# Sequence (P05556 whole entry): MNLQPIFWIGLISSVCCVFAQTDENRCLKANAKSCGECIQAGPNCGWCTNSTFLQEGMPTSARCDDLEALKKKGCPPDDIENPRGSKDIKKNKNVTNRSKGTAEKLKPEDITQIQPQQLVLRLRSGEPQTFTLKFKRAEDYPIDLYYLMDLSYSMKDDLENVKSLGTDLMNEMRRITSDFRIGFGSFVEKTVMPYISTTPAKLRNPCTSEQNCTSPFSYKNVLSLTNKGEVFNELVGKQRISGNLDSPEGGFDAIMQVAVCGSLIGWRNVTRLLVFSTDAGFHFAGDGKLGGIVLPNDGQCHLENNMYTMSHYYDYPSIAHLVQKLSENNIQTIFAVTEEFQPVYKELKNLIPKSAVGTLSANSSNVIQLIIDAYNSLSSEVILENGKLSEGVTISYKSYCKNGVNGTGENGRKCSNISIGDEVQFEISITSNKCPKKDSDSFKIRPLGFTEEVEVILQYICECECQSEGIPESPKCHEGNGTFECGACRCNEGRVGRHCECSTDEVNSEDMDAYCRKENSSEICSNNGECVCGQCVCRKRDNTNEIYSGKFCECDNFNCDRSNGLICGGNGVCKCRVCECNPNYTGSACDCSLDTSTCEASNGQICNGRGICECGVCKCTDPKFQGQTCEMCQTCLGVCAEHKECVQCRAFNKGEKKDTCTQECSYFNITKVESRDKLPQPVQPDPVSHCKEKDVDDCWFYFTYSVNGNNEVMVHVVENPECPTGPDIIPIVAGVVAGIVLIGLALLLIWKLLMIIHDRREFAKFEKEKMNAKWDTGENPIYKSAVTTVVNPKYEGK
# Sequence (P13612 whole entry): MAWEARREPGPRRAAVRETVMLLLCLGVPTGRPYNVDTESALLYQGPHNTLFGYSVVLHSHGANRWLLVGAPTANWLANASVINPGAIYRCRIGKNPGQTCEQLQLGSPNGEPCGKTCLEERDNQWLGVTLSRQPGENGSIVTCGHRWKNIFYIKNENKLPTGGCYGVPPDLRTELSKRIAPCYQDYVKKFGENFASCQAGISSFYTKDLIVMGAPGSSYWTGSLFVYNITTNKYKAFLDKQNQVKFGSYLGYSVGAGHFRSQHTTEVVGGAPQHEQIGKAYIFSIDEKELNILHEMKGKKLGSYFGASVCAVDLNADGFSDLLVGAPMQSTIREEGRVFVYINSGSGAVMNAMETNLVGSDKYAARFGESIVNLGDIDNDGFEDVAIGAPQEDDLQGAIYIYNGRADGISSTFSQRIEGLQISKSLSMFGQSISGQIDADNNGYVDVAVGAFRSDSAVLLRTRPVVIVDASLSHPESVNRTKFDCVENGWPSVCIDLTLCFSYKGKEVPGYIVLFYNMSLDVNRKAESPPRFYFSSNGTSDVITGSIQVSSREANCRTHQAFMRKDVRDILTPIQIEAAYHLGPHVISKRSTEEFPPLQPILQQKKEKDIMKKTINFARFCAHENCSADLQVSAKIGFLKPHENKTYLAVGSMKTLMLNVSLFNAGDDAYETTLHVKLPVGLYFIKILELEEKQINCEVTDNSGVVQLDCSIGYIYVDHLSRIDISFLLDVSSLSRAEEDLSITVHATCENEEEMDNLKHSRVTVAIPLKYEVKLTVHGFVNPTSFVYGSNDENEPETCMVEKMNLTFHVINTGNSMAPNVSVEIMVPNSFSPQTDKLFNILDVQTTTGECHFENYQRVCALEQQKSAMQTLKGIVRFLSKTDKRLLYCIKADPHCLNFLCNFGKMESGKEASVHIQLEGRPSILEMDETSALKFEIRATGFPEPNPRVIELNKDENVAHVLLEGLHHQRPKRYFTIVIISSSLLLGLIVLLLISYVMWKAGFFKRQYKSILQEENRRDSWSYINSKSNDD
# METHOD NOTES: Inhibition of very late antigen-4 alpha4-beta1 (VLA-4), I-VCAM-Ig as radioligand
# Assay type: protein-complex assay
Task for the reader: assign each of the following compounds its reported pIC50.
Answers are plain numbers, as −log10 of the molar value.

// below: answered compounds
[[record]]
compound = "COc1ccccc1-c1ccc(C[C@H](NC(=O)[C@@H]2CCCN2)C(=O)O)cc1"
observed = 7.96

[[record]]
compound = "COc1ccccc1-c1ccc(C[C@H](NC(=O)N2CCCC2)C(=O)O)cc1"
observed = 7.77

[[record]]
compound = "COc1ccccc1-c1ccc(C[C@H](NC(=O)C2CCCS2(=O)=O)C(=O)O)cc1 (stereo partly drawn)"
observed = 8.68

[[record]]
compound = "C[C@]1(C(=O)N[C@@H](Cc2ccc(-c3c(OC4CC4)cccc3OC3CC3)cc2)C(=O)O)CCCO1"
observed = 8.62

[[record]]
compound = "COc1ccccc1-c1ccc(C[C@H](NC(=O)C2CCCO2)C(=O)O)cc1 (stereo partly drawn)"
observed = 8.77

[[record]]
compound = "COc1ccccc1-c1ccc(C[C@H](NC(=O)C2CCC(=O)N2)C(=O)O)cc1 (stereo partly drawn)"
observed = 8.55


Quick batch: pIC50 for everything below.
1. C[C@]1(C(=O)N[C@@H](Cc2ccc(NC(=O)c3c(Cl)cncc3Cl)cc2)C(=O)O)CCCO1
2. COc1ccccc1-c1ccc(C[C@H](NC(=O)N2CCC=N2)C(=O)O)cc1

Reply:
1. 9.70
2. 7.71

The measured values listed here are drawn from ChEMBL document CHEMBL1135129.
